This listing pairs molecules with measured Relative activity (%).
test system: purified esterase; assay: Hydrolysis activity of the esterase to substrates, pH-stat (Example 6, Table 1); format: biochemical, Bacillus sp. DC-1; settings: substrate 20 mM; 100 mM Tris-HCl pH 9.0; emulsified with 0.2% polyvinyl alcohol; ethyl butyrate = 100

MOLECULE	UNIT_DESCRIPTOR	Relative activity (%)
CCCC(=O)OCC [Ethyl butyrate]	%	100.0
CCCC(=O)OCC(COC(=O)CCC)OC(=O)CCC	%	56.6
CC(=O)OCC(COC(C)=O)OC(C)=O	%	14.1
CCCCCCCCCCCCCCCC(=O)OC(C)C [Isopropyl palmitate]	%	1.7
